Source listed as the supplement of paper PMC7877785.

self-splicing fitness (ln) overview
Procedure details: self-splicing fitness, log relative to wild type (ln ratio); higher = more splicing; Tetrahymena group I intron in knt gene, E. coli kanamycin selection, DiMSum; sequences stand for … in CUCUCU…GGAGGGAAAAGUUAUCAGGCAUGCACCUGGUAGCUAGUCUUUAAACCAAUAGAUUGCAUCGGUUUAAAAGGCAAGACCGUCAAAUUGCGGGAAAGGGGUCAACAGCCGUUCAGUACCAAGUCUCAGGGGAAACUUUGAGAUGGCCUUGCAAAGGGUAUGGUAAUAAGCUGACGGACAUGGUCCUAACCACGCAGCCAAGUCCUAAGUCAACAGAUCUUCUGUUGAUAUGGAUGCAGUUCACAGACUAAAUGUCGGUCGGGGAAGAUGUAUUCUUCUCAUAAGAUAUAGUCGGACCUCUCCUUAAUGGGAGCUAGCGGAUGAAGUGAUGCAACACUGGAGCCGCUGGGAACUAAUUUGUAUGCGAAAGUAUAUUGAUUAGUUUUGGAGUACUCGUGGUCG;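 further: selection with 25 µg/mL kanamycin versus none on LB agar overnight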
Experimental context: 30 °C
Endpoint name: self-splicing fitness (ln)

CACGAGCAAUAUUACGAAUC    -3.87
CGAGAGCAAUAUUACGCCUA    -2.4
AUCAAGCAAUAUUACGGCUC    -0.551
CAGAAGCAAUAUUACGGAAG    -1.65
CGACAGCAAUAUUACGCCCA    -1.56
CGUUAGCAAUAUUACGAUAU    -3.41
AAUAAGCAAUAUUACGGGCG    -1.29
CUACAGCAAUAUUACGAAAC    -3.35
CGUAAGCAAUAUUACGGUCU    -2.56
UUCCAGCAAUAUUACGCAUG    -3.41
AAAUAGCAAUAUUACGGACA    -1.08
CAAUAGCAAUAUUACGGCCG    0.102
UUGUAGCAAUAUUACGGGUG    -2.02
GUAGAGCAAUAUUACGAUGC    -0.0786
ACUCAGCAAUAUUACGGCAC    -1.24
GCGUAGCAAUAUUACGCCAU    -2.97
UUUAAGCAAUAUUACGCGAC    -2.4
GCUGAGCAAUAUUACGAUUA    -2.88
GGUGAGCAAUAUUACGGCAA    -1.26
GCUAAGCAAUAUUACGCAAU    -1.55
GAGCAGCAAUAUUACGUUUA    -1.17
AGGCAGCAAUAUUACGGCUG    -2.3
CCGGAGCAAUAUUACGGUGA    -3.8
AUUGAGCAAUAUUACGCUCC    -1.83
UACCAGCAAUAUUACGAGCG    -0.124
AAAGAGCAAUAUUACGCAAC    -2.78
CUCAAGCAAUAUUACGCAUU    -3.4
UGUCAGCAAUAUUACGAUUC    -1.84
CUGAAGCAAUAUUACGUUGG    -2.84
CAAUAGCAAUAUUACGCUAC    -3.14
GUCAAGCAAUAUUACGUUCG    -2.63
CCCCAGCAAUAUUACGCCAC    -3.09
GGGAAGCAAUAUUACGGGUA    -0.928
CUGAAGCAAUAUUACGGGGC    -3.24
